# Assay Info: Kinetic solubility by quantitative nitrogen detection assay
# Assay type: physicochemical
Quick rule: solubility kinetic of at least 6 µM means True, below that means False.

[[record]]
chemical_string = "Nc1cccc(S(=O)(=O)N2CCCN(S(=O)(=O)c3ccc4c(c3)OCCO4)CC2)c1"
category = "True"

[[record]]
chemical_string = "Nc1cccc(S(=O)(=O)N2CCN(S(=O)(=O)c3ccc4c(c3)OCCO4)CC2)c1"
category = "True"

[[record]]
chemical_string = "O=S(=O)(c1ccc2c(c1)OCCO2)N1CCCN(S(=O)(=O)c2c(F)cccc2F)CC1"
category = "False"

[[record]]
chemical_string = "O=S(=O)(c1ccc2c(c1)OCCO2)N1CCN(S(=O)(=O)c2c(F)cccc2F)CC1"
category = "False"

[[record]]
chemical_string = "COc1cc(F)c(S(=O)(=O)N2CCCN(S(=O)(=O)c3cccc(N)c3)CC2)c(F)c1"
category = "True"

[[record]]
chemical_string = "COc1cc(F)c(S(=O)(=O)N2CCN(S(=O)(=O)c3cccc(N)c3)CC2)c(F)c1"
category = "False"

[[record]]
chemical_string = "Nc1cccc(S(=O)(=O)N2CCN(S(=O)(=O)c3c(F)cccc3F)CC2)c1"
category = "False"


====

# System Name: UniProt:P14618
# Sequence (P14618 2-531 limits assumed): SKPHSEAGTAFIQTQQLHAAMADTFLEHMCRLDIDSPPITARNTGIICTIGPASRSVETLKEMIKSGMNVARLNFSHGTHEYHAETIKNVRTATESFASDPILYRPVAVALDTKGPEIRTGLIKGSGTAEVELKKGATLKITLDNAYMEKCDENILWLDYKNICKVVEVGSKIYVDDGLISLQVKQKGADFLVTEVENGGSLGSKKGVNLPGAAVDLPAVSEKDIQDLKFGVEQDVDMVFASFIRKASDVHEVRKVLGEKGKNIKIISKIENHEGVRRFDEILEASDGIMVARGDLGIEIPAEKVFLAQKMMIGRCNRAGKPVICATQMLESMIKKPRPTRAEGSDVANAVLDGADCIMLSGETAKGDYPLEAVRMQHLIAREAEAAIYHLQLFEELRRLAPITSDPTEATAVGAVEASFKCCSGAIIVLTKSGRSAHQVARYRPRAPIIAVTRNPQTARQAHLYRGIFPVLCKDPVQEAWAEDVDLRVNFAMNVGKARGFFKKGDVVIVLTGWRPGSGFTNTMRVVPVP
# Assay Info: Activation of PKM2 assessed as ATP product formation at 57 uM by luminescent pyruvate kinase-luciferase coupled assay relative to fructose-1,6-bis-phosphate
Activity calls are given as the source filed them. The calls are words filed in the database; no cut-off is given here.
Recorded Metric: Activity

[[record]]
compound = "O=S(=O)(c1ccc2c(c1)OCCO2)N1CCN(S(=O)(=O)c2c(F)cccc2F)CC1"
system_name = "UniProt:P14618"
recorded_metric = "Activity"
measurement = "94.4%"

[[record]]
compound = "O=S(=O)(c1ccc2c(c1)OCCCO2)N1CCN(S(=O)(=O)c2c(F)cccc2F)CC1"
system_name = "UniProt:P14618"
recorded_metric = "Activity"
measurement = "100%"

[[record]]
compound = "O=S(=O)(NCCCCCNS(=O)(=O)c1c(F)cccc1F)c1ccc2c(c1)OCCO2"
system_name = "UniProt:P14618"
recorded_metric = "Activity"
measurement = "114%"

[[record]]
compound = "O=S(=O)(c1ccc2c(c1)OCCO2)C1CCN(S(=O)(=O)c2c(F)cccc2F)CC1"
system_name = "UniProt:P14618"
recorded_metric = "Activity"
measurement = "110%"

[[record]]
compound = "O=S(=O)(c1ccccc1)N1CCN(S(=O)(=O)c2ccc3c(c2)OCCO3)CC1"
system_name = "UniProt:P14618"
recorded_metric = "Activity"
measurement = "108%"

[[record]]
compound = "O=S(=O)(NC1CCN(S(=O)(=O)c2ccc3c(c2)OCCO3)CC1)c1c(F)cccc1F"
system_name = "UniProt:P14618"
recorded_metric = "Activity"
measurement = "101%"

[[record]]
compound = "O=C(c1c(F)cccc1F)N1CCN(S(=O)(=O)c2ccc3c(c2)OCCO3)CC1"
system_name = "UniProt:P14618"
recorded_metric = "Activity"
measurement = "inactive"

[[record]]
compound = "O=S(=O)(NC1CCN(S(=O)(=O)c2c(F)cccc2F)C1)c1ccc2c(c1)OCCO2 (stereo not drawn)"
system_name = "UniProt:P14618"
recorded_metric = "Activity"
measurement = "83.7%"

[[record]]
compound = "O=S(=O)(NCCCNS(=O)(=O)c1c(F)cccc1F)c1ccc2c(c1)OCCO2"
system_name = "UniProt:P14618"
recorded_metric = "Activity"
measurement = "106%"

[[record]]
compound = "COc1ccc(S(=O)(=O)N2CCN(S(=O)(=O)c3ccc4c(c3)OCCO4)CC2)cc1"
system_name = "UniProt:P14618"
recorded_metric = "Activity"
measurement = "92.2%"

[[record]]
compound = "O=S(=O)(c1cccc(F)c1)N1CCN(S(=O)(=O)c2ccc3c(c2)OCCO3)CC1"
system_name = "UniProt:P14618"
recorded_metric = "Activity"
measurement = "107%"

[[record]]
compound = "O=C(c1ccc2c(c1)OCCO2)N1CCN(S(=O)(=O)c2c(F)cccc2F)CC1"
system_name = "UniProt:P14618"
recorded_metric = "Activity"
measurement = "inactive"

[[record]]
compound = "C[C@@H]1CN(S(=O)(=O)c2c(F)cccc2F)CCN1S(=O)(=O)c1ccc2c(c1)OCCO2"
system_name = "UniProt:P14618"
recorded_metric = "Activity"
measurement = "98.8%"

[[record]]
compound = "C[C@H]1CN(S(=O)(=O)c2c(F)cccc2F)CCN1S(=O)(=O)c1ccc2c(c1)OCCO2"
system_name = "UniProt:P14618"
recorded_metric = "Activity"
measurement = "109%"

[[record]]
compound = "CC1(C)CCc2cc(S(=O)(=O)N3CCN(S(=O)(=O)c4c(F)cccc4F)CC3)ccc2O1"
system_name = "UniProt:P14618"
recorded_metric = "Activity"
measurement = "119%"

[[record]]
compound = "COc1cccc(S(=O)(=O)N2CCN(S(=O)(=O)c3ccc4c(c3)OCCO4)CC2)c1"
system_name = "UniProt:P14618"
recorded_metric = "Activity"
measurement = "90%"

[[record]]
compound = "O=S(=O)(NCCNS(=O)(=O)c1c(F)cccc1F)c1ccc2c(c1)OCCO2"
system_name = "UniProt:P14618"
recorded_metric = "Activity"
measurement = "60.3%"

[[record]]
compound = "O=S(=O)(c1ccc2c(c1)OCCO2)N1CCN(S(=O)(=O)c2ccc(F)cc2F)CC1"
system_name = "UniProt:P14618"
recorded_metric = "Activity"
measurement = "113%"

[[record]]
compound = "C[C@@H]1CN(S(=O)(=O)c2ccc3c(c2)OCCO3)CCN1S(=O)(=O)c1c(F)cccc1F"
system_name = "UniProt:P14618"
recorded_metric = "Activity"
measurement = "108%"

[[record]]
compound = "Nc1cccc(S(=O)(=O)N2CCN(S(=O)(=O)c3c(F)cccc3F)CC2)c1"
system_name = "UniProt:P14618"
recorded_metric = "Activity"
measurement = "84.4%"

[[record]]
compound = "O=C1CN(S(=O)(=O)c2ccc3c(c2)OCCO3)CCN1S(=O)(=O)c1c(F)cccc1F"
system_name = "UniProt:P14618"
recorded_metric = "Activity"
measurement = "96.9%"

[[record]]
compound = "O=S(=O)(c1ccc2c(c1)OCO2)N1CCN(S(=O)(=O)c2c(F)cccc2F)CC1"
system_name = "UniProt:P14618"
recorded_metric = "Activity"
measurement = "61%"

[[record]]
compound = "O=S(=O)(c1ccc2c(c1)OCCO2)N1CCN(S(=O)(=O)c2ccccn2)CC1"
system_name = "UniProt:P14618"
recorded_metric = "Activity"
measurement = "103%"

[[record]]
compound = "O=S(=O)(N[C@H]1CC[C@H](NS(=O)(=O)c2c(F)cccc2F)CC1)c1ccc2c(c1)OCCO2"
system_name = "UniProt:P14618"
recorded_metric = "Activity"
measurement = "90.8%"

[[record]]
compound = "O=S(=O)(c1cccc(C(F)(F)F)c1)N1CCN(S(=O)(=O)c2ccc3c(c2)OCCO3)CC1"
system_name = "UniProt:P14618"
recorded_metric = "Activity"
measurement = "39.3%"

[[record]]
compound = "O=S(=O)(c1c(F)cccc1F)C1CCN(S(=O)(=O)c2ccc3c(c2)OCCO3)CC1"
system_name = "UniProt:P14618"
recorded_metric = "Activity"
measurement = "104%"

[[record]]
compound = "Cn1ccc2cc(S(=O)(=O)N3CCN(S(=O)(=O)c4c(F)cccc4F)CC3)ccc21"
system_name = "UniProt:P14618"
recorded_metric = "Activity"
measurement = "91.1%"

[[record]]
compound = "COc1cc(F)c(S(=O)(=O)N2CCN(S(=O)(=O)c3ccc4c(c3)OCCO4)CC2)c(F)c1"
system_name = "UniProt:P14618"
recorded_metric = "Activity"
measurement = "91.8%"

[[record]]
compound = "O=S(=O)(c1c(F)cccc1F)N1CCN(S(=O)(=O)c2c(F)cccc2F)CC1"
system_name = "UniProt:P14618"
recorded_metric = "Activity"
measurement = "74.3%"

[[record]]
compound = "O=S(=O)(c1ccc2c(c1)OCCO2)N1CCN(S(=O)(=O)c2ccccc2F)CC1"
system_name = "UniProt:P14618"
recorded_metric = "Activity"
measurement = "114%"

[[record]]
compound = "O=S(=O)(NCCCCNS(=O)(=O)c1c(F)cccc1F)c1ccc2c(c1)OCCO2"
system_name = "UniProt:P14618"
recorded_metric = "Activity"
measurement = "113%"

[[record]]
compound = "O=S(=O)(NC1CCN(S(=O)(=O)c2ccc3c(c2)OCCO3)C1)c1c(F)cccc1F (stereo not drawn)"
system_name = "UniProt:P14618"
recorded_metric = "Activity"
measurement = "82.4%"

[[record]]
compound = "Nc1cccc(S(=O)(=O)N2CCN(S(=O)(=O)c3ccc4c(c3)OCCO4)CC2)c1"
system_name = "UniProt:P14618"
recorded_metric = "Activity"
measurement = "83.7%"

[[record]]
compound = "O=S(=O)(c1ccc2c(c1)OCCO2)N1CCN(S(=O)(=O)c2ccc3c(c2)OCCO3)CC1"
system_name = "UniProt:P14618"
recorded_metric = "Activity"
measurement = "89.7%"

[[record]]
compound = "O=S(=O)(NCCCCCCNS(=O)(=O)c1c(F)cccc1F)c1ccc2c(c1)OCCO2"
system_name = "UniProt:P14618"
recorded_metric = "Activity"
measurement = "110%"

[[record]]
compound = "O=S(=O)(NCC1CN(S(=O)(=O)c2c(F)cccc2F)C1)c1ccc2c(c1)OCCO2"
system_name = "UniProt:P14618"
recorded_metric = "Activity"
measurement = "108%"

[[record]]
compound = "COc1ccc(S(=O)(=O)N2CCN(S(=O)(=O)c3c(F)cccc3F)CC2)cc1"
system_name = "UniProt:P14618"
recorded_metric = "Activity"
measurement = "102%"

[[record]]
compound = "O=S(=O)(NCC1CN(S(=O)(=O)c2ccc3c(c2)OCCO3)C1)c1c(F)cccc1F"
system_name = "UniProt:P14618"
recorded_metric = "Activity"
measurement = "93.3%"

